FYI, the data here is from paper PMC8769072.

- Measurement target: EPS15 121-215, P42566
- Sequence (P42566 121-215): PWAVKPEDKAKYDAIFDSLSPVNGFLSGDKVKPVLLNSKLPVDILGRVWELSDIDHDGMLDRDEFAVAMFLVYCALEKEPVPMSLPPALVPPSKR
Reported property: selected by phage display

| Binder | Reported |
| --- | --- |
| ELTGEKFLEMANPNVA [MACF1, Q9UPN3] | confidence 2 (active) |
| LNQGNPFIATSGPGHL [CHD7, Q9P2D1] | confidence 2 (active) |
| DMESDIRSWELFLSNV [TTC3, P53804] | confidence 2 (active) |
| QIMENPFVQSMLSNPD [UBQLN1, Q9UMX0] | confidence 3 (active) |
| DSASSNPFALPNSVTP [WDR59, Q6PJI9] | confidence 3 (active) |
| TPSEAERWLEEVSQVA [NUMBL, Q9Y6R0] | confidence 3 (active) |
| AAGPSVASSTNPFQTN [AGFG1, P52594] | confidence 3 (active) |
